- Assay Explanation: Behavioral toxicity in po dosed Sprague-Dawley albino rat after […]
- Assay type: organism-based
- Test Conditions: in vivo
Measured Parameter: TD50 at […]

Incoming: For COC[C@@H](NC(C)=O)C(=O)NCc1ccc(/C=C/c2cccc(F)c2)cc1 , what is its reported TD50 at […]?
Outgoing: > 30 mg/kg

* * *

- Assay Explanation: Behavioral toxicity in po dosed Sprague-Dawley albino rat
- Format: organism-based
- Test Conditions: Sprague-Dawley, in vivo
Measured Parameter: TD50

Incoming: Field request: TD50 | item: COC[C@@H](NC(C)=O)C(=O)NCc1ccccc1 [LACOSAMIDE]
Outgoing: > 500 mg/kg

* * *

- Assay Explanation: Behavioral toxicity in po dosed Sprague-Dawley albino rat after 4 hrs
- Format: organism-based
- Test Conditions: Sprague-Dawley, in vivo
Measured Parameter: TD50 at 4 h (mg/kg)
Entry rule: numbers only, all in mg/kg.

Incoming: What does the record list as TD50 at 4 h for COC[C@@H](NC(C)=O)C(=O)NCc1ccc(C#Cc2cccc(F)c2)cc1 ?
Outgoing: 63

* * *

This section presents molecules with their documented TD50 at 0.5 h values.
- Assay Explanation: Toxicity in ip dosed albino mouse after 0.5 hrs by rotarod test
- Format: organism-based
- Test Conditions: albino, in vivo
Note: unit mg/kg is implicit; provide only the numeric part.

{"columns": ["Molecule", "Measured Parameter", "Reported"],
 "data": [
  ["COC[C@@H](NC(C)=O)C(=O)NCc1ccc(OCc2ccc(F)cc2)cc1", "TD50 at 0.5 h", 30],
  ["NC(=O)C(NCc1ccc(OCc2cccc(F)c2)cc1)c1ccco1.O=C(O)C(=O)O (racemic)", "TD50 at 0.5 h", 100],
  ["COC[C@@H](NC(C)=O)C(=O)NCc1ccc(CCc2cccc(F)c2)cc1", "TD50 at 0.5 h", 30],
  ["COC[C@@H](NC(C)=O)C(=O)NCc1ccc(/C=C/c2cccc(F)c2)cc1", "TD50 at 0.5 h", 100],
  ["COC[C@@H](NC(C)=O)C(=O)NCc1ccc(OCCc2cccc(F)c2)cc1", "TD50 at 0.5 h", 30],
  ["COC[C@@H](NC(C)=O)C(=O)NCc1ccc(COCc2cccc(F)c2)cc1", "TD50 at 0.5 h", 30],
  ["COC[C@@H](NC(C)=O)C(=O)NCc1ccc(-c2cccc(F)c2)cc1", "TD50 at 0.5 h", 100],
  ["COC[C@@H](NC(C)=O)C(=O)NCc1ccc(NCc2cccc(F)c2)cc1", "TD50 at 0.5 h", 30]
]}

Switching to the query record.
Incoming: Which TD50 at 0.5 h is reported for this molecule? COCC(NCc1ccc(OCc2cccc(F)c2)cc1)C(N)=O (racemic)
Outgoing: 100

* * *

- Assay Explanation: Toxicity in ip dosed albino mouse after […] by rotarod test
- Type: organism-based
- Test Conditions: in vivo
Measured Parameter: TD50 at […]

Incoming: What measured TD50 at […] goes with COC[C@@H](NC(C)=O)C(=O)NCc1ccc(COc2cccc(F)c2)cc1 ?
Outgoing: 10 mg/kg

* * *

- Assay Explanation: Behavioral toxicity in po dosed Sprague-Dawley albino rat after 0.25 to 4 hrs
- Assay type: organism-based
- Test Conditions: in vivo
Measured Parameter: TD50

{"columns": ["Compound Smiles", "TD50"],
 "data": [
  ["COC[C@@H](NC(C)=O)C(=O)NCc1ccc(Oc2cccc(F)c2)cc1", "> 10 mg/kg"]
]}

Incoming: Suppose we examine the molecule CC(=O)N[C@@H](C)C(=O)NCc1ccc(OCc2cccc(F)c2)cc1 ; what TD50 value has been reported?
Outgoing: > 30 mg/kg
